The measurements presented in this section are drawn from patent US20140348819A1.

Kindly state ability of recombinant RTK ligand to confer resistance for each of the entries shown.
# System: six V600E BRAF melanoma cell lines
# experimental.protocol: Screening of recombinant RTK ligands for ability to confer resistance to BRAFi (PLX4720) or MEKi (PD184352) (Table 4)
# Type: cell-based, human
# Design: scale not given here
# experimental.parameters: G-361, PD184352 - 1 uM, ligand 1.6 ng/ml
Numbers only.

Fill in ability of recombinant RTK ligand to confer resistance for each of the 3 molecules listed.
1. BDNF (protein, UniProt P23560 19-247, looked up) Neurotrophic factor BDNF …: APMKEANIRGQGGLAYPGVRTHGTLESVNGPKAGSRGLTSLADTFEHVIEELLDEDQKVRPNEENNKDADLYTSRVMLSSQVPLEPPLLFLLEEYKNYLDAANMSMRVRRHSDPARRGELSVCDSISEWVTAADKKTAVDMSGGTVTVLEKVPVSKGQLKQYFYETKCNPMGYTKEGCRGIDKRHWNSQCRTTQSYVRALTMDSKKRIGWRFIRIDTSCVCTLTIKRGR
2. flt-3 ligand (FL) (protein, UniProt P49771 27-235, looked up) Fms-related tyrosine kinase 3 …: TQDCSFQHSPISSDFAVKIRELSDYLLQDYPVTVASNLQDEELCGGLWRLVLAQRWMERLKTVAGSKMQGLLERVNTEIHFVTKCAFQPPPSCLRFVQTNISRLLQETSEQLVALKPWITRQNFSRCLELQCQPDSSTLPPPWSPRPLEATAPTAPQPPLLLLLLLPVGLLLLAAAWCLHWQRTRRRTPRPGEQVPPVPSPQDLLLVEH
3. Ephrin-A4 (protein, UniProt P52798 26-170, looked up) Ephrin-A4: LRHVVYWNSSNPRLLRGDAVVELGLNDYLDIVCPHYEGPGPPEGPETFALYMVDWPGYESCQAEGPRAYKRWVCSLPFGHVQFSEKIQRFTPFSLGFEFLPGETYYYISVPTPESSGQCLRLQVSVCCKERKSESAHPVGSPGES

[0.95, 1.09, 1.11]

Fill in ability of recombinant RTK ligand to confer resistance for each of the 2 molecules listed.
1. VEGF-C (protein, UniProt P49767 112-227, looked up) Vascular endothelial growth …: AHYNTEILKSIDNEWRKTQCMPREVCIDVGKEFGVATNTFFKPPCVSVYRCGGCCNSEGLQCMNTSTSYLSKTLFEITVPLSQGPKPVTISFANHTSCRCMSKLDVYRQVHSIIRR
2. GDNF (protein, UniProt P39905 78-211, looked up) Glial cell line-derived …: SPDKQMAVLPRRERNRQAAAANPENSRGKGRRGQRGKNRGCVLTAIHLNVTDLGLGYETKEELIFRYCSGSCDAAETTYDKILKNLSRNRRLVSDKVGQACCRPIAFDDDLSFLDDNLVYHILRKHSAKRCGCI

0.97
0.94
